# System: Casein kinase I isoform alpha (Homo sapiens) (UniProt P48729);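 also: each value is a mean percent inhibition of the kinase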
# Sequence (P48729 2-337 limits assumed): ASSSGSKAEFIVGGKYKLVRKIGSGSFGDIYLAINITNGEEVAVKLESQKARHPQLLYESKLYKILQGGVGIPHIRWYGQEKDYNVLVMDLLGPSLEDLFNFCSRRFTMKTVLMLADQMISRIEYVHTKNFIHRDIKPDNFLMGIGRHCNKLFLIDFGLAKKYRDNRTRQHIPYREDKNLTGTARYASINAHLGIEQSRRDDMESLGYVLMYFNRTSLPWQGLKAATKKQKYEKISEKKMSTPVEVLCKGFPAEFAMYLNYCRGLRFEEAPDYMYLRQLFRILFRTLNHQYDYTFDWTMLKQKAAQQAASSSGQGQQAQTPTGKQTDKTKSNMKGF
# Cond: at 1 µM
# cutoff 3% applies to inhibition; >= gives rule met, < gives rule not met

Please review the entries below; each comes with its answer.
Smiles record: Fc1ccc(Nc2nccc(-c3c(-c4ccc(C(F)(F)F)cc4)nn4ncccc34)n2)cc1F
Class label: rule met

Smiles record: FC(F)(F)CNc1nccc(-c2cnn3ncccc23)n1
Class label: rule met

Smiles record: CNC(=O)c1sc(-n2cnc3cc(OC)c(OC)cc32)cc1OCc1ccccc1C(F)(F)F
Class label: rule not met

Smiles record: COc1cccc(-n2ncc3c(N/N=C/c4ccc(C(=O)NCCN(C)C)cc4)ncnc32)c1
Class label: rule met

Smiles record: N#Cc1cccc(Nc2ncc(-c3ccccc3)o2)c1
Class label: rule not met

Field: next compound
Please tell me: is the compound Fc1cccc(COc2ccc(Nc3ncncc3C#Cc3ccccc3)cc2Cl)c1 at or over 3% in terms of inhibition?
rule met
